# target entity: T1, sRAGE (V-C1-C2) lot LP08062 (human, UniProt Q15109 23-331, limits assumed)
# T1 construct: domain: V-C1-C2; also called Human RAGE; LP08062 (Rage)
# T1 sequence (Q15109 23-331 limits assumed): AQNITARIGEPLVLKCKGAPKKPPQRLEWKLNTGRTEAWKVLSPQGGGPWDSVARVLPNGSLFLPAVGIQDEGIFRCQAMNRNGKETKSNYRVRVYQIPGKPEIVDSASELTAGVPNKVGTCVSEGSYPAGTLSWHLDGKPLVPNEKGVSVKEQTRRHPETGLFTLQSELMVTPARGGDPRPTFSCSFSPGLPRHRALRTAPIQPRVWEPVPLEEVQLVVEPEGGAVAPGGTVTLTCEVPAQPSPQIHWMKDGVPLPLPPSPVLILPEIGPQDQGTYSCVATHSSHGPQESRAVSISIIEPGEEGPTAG
# run description: SPR (Biacore), mAb captured on anti-mouse Fc, sRAGE 15 nM, Langmuir 1:1
metric: kon (M⁻¹ s⁻¹)
Note: unit M⁻¹ s⁻¹ is implicit; provide only the numeric part.

// worked examples, kon included
173 RAGE-1 (antibody, V domains shown, Anti-RAGE monoclonal antibody from a hybridoma, captured by anti-mouse Fc; also called LP08107) VH: EVKLEESGGGLVQPGGSMKLSCVASGFTFSNYWMNWVRQSPEKGLEWVAEIRLKSNNYATHYAESVKGRFTISRDDSKSSVYLQMNDLRAEDPGIYYCIRDYGNYAMDHWGQGTSVTVSS VL: DIVMTQSQKFMSTSVGDRVSVTCKASQNVGTNVAWYQQKPGQSPKALIYSASYRYSGVPDRFTGSGSGTDFTLTISNVQSEDLAEYFCQQYNSYPLTFGAGTKLELK ... 3.35e+06
283 RAGE-1 (antibody, V domains shown, Anti-RAGE monoclonal antibody from a hybridoma, captured by anti-mouse Fc; also called Protein 283 RAGE-1) VH: QVQLQQSGAELVRPGTSVKVSCKASGYAFTNYLIEWVKQRPGQGLEWIGVINPGSGGTNYSERFKGKATLTADKSSSTAYMQLSSLTSDDSAVYFCASYRYDGGMDYWGQGTSVTVSS VL: QAVVTQESALTTSPGETVTLTCRSSTGAVTTSNYANWVQEKPDHLFTGLIRGTNNRAPGVPARFSGSLIGDKAALTITGAQTEDEAIYFCALWYSNHWVFGGGTKLTVL ... 5.29e+06
316 RAGE-1 (antibody, V domains shown, Anti-RAGE monoclonal antibody from a hybridoma, captured by anti-mouse Fc; also called Protein 316 RAGE-1) VH: QVQLQQSGPELVRPGASVKMSCKASGYTFTSYWMHWVKQRPGQGLEWIGMIDPSNSETRLNQKFKDKATLNVDKSSNTAYMQLSSLTSEDSAVYYCARNFYGSSLRVWGAGTTVTVSS VL: DIVLTQSPASLAVSLGQRATISCRASKSVSISGYSYLHWNQQKPGQSPKLLIYLASNLESGVPARFSGSGSGTDFTLNIHPVEEEDAATYYCQHSRELPYTFGGGTKLEIK ... 5.54e+06
250 RAGE-1 (antibody, V domains shown, Anti-RAGE monoclonal antibody from a hybridoma, captured by anti-mouse Fc; also called Protein 250 RAGE-1) VH: EVKLEESGGGLVQPGGSMKLSCVASGFTFSNYWMNWVRQSPEKGLEWVAEIRLKSNNYATHYAESVKGRFTISRDDSKSSVYLQMNNLRAEDTGIYFCIRDYGNYAMDYWGQGTSVTVSS VL: DIVMTQSQKFMSTSVGDRVSVTCKASQNVGTNVAWYQQKPGQSPKALIYSASYRYSGVPDRFTGSGSGTDFTLTISNVQSEDLAEFFCQQYNSYPLTFGAGTKLELK ... 3.58e+06
95 RAGE-1 (antibody, V domains shown, Anti-RAGE monoclonal antibody from a hybridoma, captured by anti-mouse Fc; also called Protein 95 RAGE-1) VH: QVQLQQPGAELVKPGASVKLSCKASGYTFTSYWMHWVKQRPGQGLEWIGESNPSNGRTNYNEKFKNKATLTVDKSSSTAYMQLSSLTSEDSAVYYCARAPYYGFDYWGQGTTLTVSS VL: QAVVTQESALTTSPGETVTLTCRSSTGAVTTSNYANWVQEKPDHLFTGLTGGTNNRAPGVPARFSGSLIGDKAALTITGAQTEDEAIYFCALWYSNHWVFGGGTKLTVL ... 2.66e+06

[Q] For the binder shown here, 166 RAGE-1 (antibody, V domains shown, Anti-RAGE monoclonal antibody from a hybridoma, captured by anti-mouse Fc; also called LP08122; LP08122D) VH: QVQLQQSGPELVKPGTSVRISCKASGYTFTSYYIHWVKQRPGQGLEWIGWIYPGNVITNYHEKFKGKASLTADKSSSTAYMQLSSLTSEDSAVYFCAREDPFAYWGQGTLVTVSA VL: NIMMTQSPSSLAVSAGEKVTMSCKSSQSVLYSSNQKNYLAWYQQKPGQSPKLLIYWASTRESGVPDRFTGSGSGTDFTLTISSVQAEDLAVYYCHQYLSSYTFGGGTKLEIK , give the reported kon.
[A] 3.24e+06

[Q] Please give the measured kon for this binder: 501-4 RAGE-1 (antibody, V domains shown, Anti-RAGE monoclonal antibody from a hybridoma, captured by anti-mouse Fc) VH: EVMLVDSGGGLVKPGGSLKLSCAASGFTFRSYAMSWVRQTPEKRLEWVATISSGGSYTYYPDSVRGRFTTSRDNGKNTLYLQMSSLRSEDTAMYYCARHGGNYSAWFTYWGQGTLVTVSA VL: QAVVTQESALTTSPGETVTLTCRSSTGAVTTSNYANWVQEKPDHLFTGLIGGTNNRAPDVPARFSGSLIGDKAALTITGAQTEDEAIYFCALWYSNHWVFGGGTKLTVL
[A] 1.2e+06

[Q] // kon lookup, key: 56 RAGE-1 (antibody, V domains shown, Anti-RAGE monoclonal antibody from a hybridoma, captured by anti-mouse Fc; also called LP08103; Protein 56 RAGE-1) VH: QVQLQQSGPELVKPGASVRISCKASGYTFTSYFIHWVKQRPGQGLEWIGWIYPGNVNTKYNEKFKDKATLTADKSSSTAYMQLSNLTSEDSAVYFCVRGQLGDYWGQGITLTVSS VL: DIVMTQSQKFMSTSVGDRVSVTCKASQNVGINVAWYQQKPGQSPKALIYSASYRYSGVPDRFTGSGSGTDFTLIISNVQSEDLAEYFCQQYNNYPRTFGGGTKLEIK
[A] 2.89e+06

[Q] Quick check: kon of 240 RAGE-1 (antibody, V domains shown, Anti-RAGE monoclonal antibody from a hybridoma, captured by anti-mouse Fc; also called LP08108) VH: QIQLVQSGPELKKPGETVKISCKASGYTFTDYSMHWVKQAPGKGLKWMGWINTETGEPTYADDFKGRFAFSLETSASTAYLQINNLKNEDTATYFCARDYLYYYAMDYWGQGTSVTVSS VL: DVVLTQTPLSLPVSIGDQASISCKSTKSLLNSDGFTYLDWYLQKPGQSPQLLIYLVSNRFSGVPDSFSGSGSGTDFTLKISRVEAEDLGVYYCFQSNYFPLTFGGGTTLEIK ?
[A] 3.47e+06

[Q] Given 499 RAGE-1 (antibody, V domains shown, Anti-RAGE monoclonal antibody from a hybridoma, captured by anti-mouse Fc; also called Protein 499 RAGE-1) VH: EVQLQQSGTVLARPGASVKMSCKASGYTFTSYWMHWVKQRPGQGLEWIGAIYPGDSDTYYNQKFKGKAKLTAVTSTSTAYMELSSLTNEDSAVYYCTRNWDYWGQGTTLTVSS VL: DIVMTQSHKFMSTSVGDRVSITCKASQDVSTAVAWYQQKPGQSPKLLIYSASYRYTGVPDRFTGSGSGTDFTFTISSVQAEDLAVYYCQQHYNTPRTFGGGTKLEIK , state its recorded kon.
[A] 1.98e+06

The measured values listed here are drawn from patent US20120282637A1.
